- measured.target: MUSK (Homo sapiens, UniProt O15146)
- Sequence (O15146 24-869, species assumed): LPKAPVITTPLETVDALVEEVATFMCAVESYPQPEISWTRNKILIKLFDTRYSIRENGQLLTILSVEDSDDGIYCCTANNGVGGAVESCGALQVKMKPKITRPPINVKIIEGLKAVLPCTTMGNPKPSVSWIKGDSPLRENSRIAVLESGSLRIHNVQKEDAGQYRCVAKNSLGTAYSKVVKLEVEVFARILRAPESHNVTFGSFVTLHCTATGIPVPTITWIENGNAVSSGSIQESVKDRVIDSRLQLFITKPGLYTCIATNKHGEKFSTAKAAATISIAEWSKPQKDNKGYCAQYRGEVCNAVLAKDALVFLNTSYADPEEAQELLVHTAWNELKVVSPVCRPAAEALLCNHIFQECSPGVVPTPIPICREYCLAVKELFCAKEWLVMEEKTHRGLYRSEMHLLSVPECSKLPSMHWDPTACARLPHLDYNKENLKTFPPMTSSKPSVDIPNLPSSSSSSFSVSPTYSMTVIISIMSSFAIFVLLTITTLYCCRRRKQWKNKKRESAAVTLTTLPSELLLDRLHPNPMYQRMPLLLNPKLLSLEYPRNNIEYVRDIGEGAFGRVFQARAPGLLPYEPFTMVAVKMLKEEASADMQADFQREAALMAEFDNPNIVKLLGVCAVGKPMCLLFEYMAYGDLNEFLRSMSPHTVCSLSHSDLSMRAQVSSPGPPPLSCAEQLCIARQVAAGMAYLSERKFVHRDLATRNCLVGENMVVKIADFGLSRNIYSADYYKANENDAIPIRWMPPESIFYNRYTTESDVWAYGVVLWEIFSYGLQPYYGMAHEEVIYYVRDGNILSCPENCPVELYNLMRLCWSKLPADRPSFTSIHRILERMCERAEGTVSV
- assay.details: Kinase panel (mobility shift)
- Format: biochemical
quantity.measured: inhibition at 5 µM

The following compounds have reported results that may help.
• CNC(=O)c1cc(Oc2ccc(NC(=O)c3nc(COC)oc3-c3ccc(F)cc3)cc2F)ccn1 = 80 to 89%
• CNC(=O)c1cc(Oc2ccc(NC(=O)c3nc(NC)sc3-c3ccc(F)cc3F)cc2F)ccn1 = < 50%
• CNC(=O)c1cc(Oc2ccc(NC(=O)c3nc(NC)oc3-c3ccc(F)s3)cc2F)ccn1 = < 50%

Report inhibition at 5 µM for `CNC(=O)c1cc(Oc2ccc(NC(=O)c3nc(OCC(F)(F)F)oc3-c3ccc(F)cc3)cc2F)ccn1` please.
< 50%

Report inhibition at 5 µM for `CNC(=O)c1cc(Oc2c(F)cc(NC(=O)c3nc(NC)sc3-c3ccc(F)cc3)cc2F)ccn1` please.
< 50%

Report inhibition at 5 µM for `CNC(=O)c1cc(Oc2ccc(NC(=O)c3nc(SC)oc3-c3ccc(F)cc3F)cc2)ccn1` please.
< 50%

Report inhibition at 5 µM for `CNC(=O)c1cc(Oc2ccc(NC(=O)c3nc(SC)oc3-c3ccc(OC)cc3)cc2)ccn1` please.
< 50%
